# assay system: T1, human histidine-rich glycoprotein (HRG), purified from human plasma (human, UniProt P04196 19-525)
# T1 construct: also called human purified HRG; human purified HRG protein
# T1 sequence: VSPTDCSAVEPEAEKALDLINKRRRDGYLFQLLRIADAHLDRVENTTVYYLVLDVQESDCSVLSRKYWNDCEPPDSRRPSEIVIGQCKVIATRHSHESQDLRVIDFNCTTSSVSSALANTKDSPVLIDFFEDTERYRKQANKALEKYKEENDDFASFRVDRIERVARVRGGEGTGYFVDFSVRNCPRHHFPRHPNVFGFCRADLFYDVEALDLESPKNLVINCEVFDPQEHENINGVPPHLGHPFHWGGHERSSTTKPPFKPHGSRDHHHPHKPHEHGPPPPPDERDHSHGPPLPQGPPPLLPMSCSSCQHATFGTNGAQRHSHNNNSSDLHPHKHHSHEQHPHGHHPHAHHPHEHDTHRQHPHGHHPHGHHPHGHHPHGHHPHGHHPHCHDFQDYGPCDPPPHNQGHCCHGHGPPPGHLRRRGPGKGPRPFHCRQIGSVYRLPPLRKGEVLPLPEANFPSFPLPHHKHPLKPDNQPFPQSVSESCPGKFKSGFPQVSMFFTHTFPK
# procedure summary: sandwich ELISA, HRG captured by solid phase 65-3A
attribute measured: absorbance at 450 nm (OD450)

anti-HRG monoclonal antibody 6-12A-10B-9G (antibody, V domains shown, Mouse hybridoma monoclonal; biotin-labeled as detection antibody and for bead immobilisation) VH: EVQLQESGPGLVKPSQSLSLTCTVTGYSITSDYAWNWIRQFPGNKLEWMGYISYSGSTNYNPSLRSRISITRDTSKNQFFLQLISVTTEDTATYYCGSASYRYAWFAYWGQGTLVTVSA VL: DIQVTQTTSSLSASLGDRVTISCRASQDISNYLNWYQQKPDGTVKLLIYYTSRLHSGVPSRFSGSGSGTDYSLTISNLEQEDIATYFCQQGNTLPTFGGGTKLEIK = 2 to 3 od

Where do these numbers come from? They come from patent US20250258178A1.
